Documented IRF reporter across a set of compounds
system: RAW-Dual (murine macrophage reporter line); experiment: IRF reporter (Lucia luciferase) activity fold change vs agonist alone; higher = enhanced IRF activity; settings: modulator concentration 10 µM; agonist: MPLA […]
Property Measured: IRF reporter

O=C(Nc1cc(C(F)(F)F)cc(C(F)(F)F)c1)c1cc2ccccc2o1	1.03
COc1ccc(Br)cc1S(=O)(=O)NCc1ccccc1	1.21
FC(F)(F)c1ccc(/C=C/c2nc(COc3ccc(CCCCn4ccnn4)cc3)co2)cc1	1.77
Clc1ccccc1C=NNc1nc(-c2ccccc2)cc(-c2ccccc2)n1	1.65
COc1cccc(S(=O)(=O)NCc2sc(-c3ccccc3)nc2C)c1	1.16
CCOC(=O)C1=C(COCCN)NC(C)=C(C(=O)OC)C1c1ccccc1Cl (stereo not given)	1.13
CN1C(=O)C(=NNC(=O)c2ccccc2Cl)c2cc(Br)cc(Br)c21	1.01
CC1(C)CC(=O)C2=C(C1)OC(N)=C(C#N)C2c1ccccc1C(F)(F)F (stereo not given)	1.26
C#CC1(O)CCC2C3CCC4=Cc5oncc5CC4(C)C3CCC21C (stereo not given)	1.56
CC(C)(C)c1ccc(C2=NC(=Cc3cccc4ccccc34)C(=O)O2)cc1	1

* * *

test system: RAW-Dual (murine macrophage reporter line); assay: IRF reporter (Lucia luciferase) activity fold change vs agonist alone; higher = enhanced IRF activity; conditions: modulator concentration 10 µM; agonist: LPS 0.1 ug/mL
Property Measured: IRF reporter

COC(=O)C1=C(C)NC(C)=C(C(=O)OCCN(C)Cc2ccccc2)C1c1cccc([N+](=O)[O-])c1 (stereo not given)	1.14
COc1ccc(C(C)NC(=O)CCc2nnc3ccc(-c4ccc(C)c(C)c4)nn23)cc1OC (stereo not given)	0.963
O=C(O)C(=O)O.c1ccc(SCCc2ccncc2)cc1	1.07
Cn1cnc2c(F)c(Nc3ccc(Br)cc3Cl)c(C(=O)NOCCO)cc21	3.68
COc1ccc(OC)c(C2CC(c3ccc(Cl)cc3)=NN2S(C)(=O)=O)c1 (stereo not given)	1.15
COc1ccc(S(=O)(=O)Nc2ccc(Oc3ccccc3)cc2)cc1	1.17
COc1ccc(OC)c(Nc2nc(-c3c(C)nc4ncccn34)cs2)c1	0.381
Cl.O[C@@H](CNC[C@H](O)[C@H]1CCc2cc(F)ccc2O1)[C@@H]1CCc2cc(F)ccc2O1	0.642
CC1(C)CC(=O)c2c(nc3ccc(Br)cc3c2N)C1.Cl	1.07
CN(C)CCC(c1ccccc1)c1ccccn1.O=C(O)/C=C\C(=O)O (stereo not given)	0.0283

* * *

tested on: RAW-Dual (murine macrophage reporter line); assay: NF-kB reporter (SEAP) activity fold change vs agonist alone; higher = enhanced NF-kB activity; settings: modulator concentration 10 µM; agonist: MPLA […]
Entries and their measured NF-kB reporter follow.
Property Measured: NF-kB reporter

CC(C)c1nc(CN(C)C(=O)N[C@@H](CCN2CCOCC2)C(=O)N[C@H](CC[C@H](Cc2ccccc2)NC(=O)OCc2cncs2)Cc2ccccc2)cs1	1.14
COc1ccc(C(=O)Nc2sc3c(c2C(N)=O)CCC(C)C3)c(OC)c1 (stereo unspecified)	0.947
c1ccc(OCc2nnc(-c3ccccc3)o2)cc1	1.14
CCC(C)(C)C(=O)O[C@H]1C[C@@H](C)C=C2C=C[C@H](C)[C@H](CC[C@@H]3C[C@@H](O)CC(=O)O3)[C@H]21	1.82
CC(=O)C1CCC2C3CC=C4CC(O)CCC4(C)C3CCC12C (stereo unspecified)	1.13
NCC1OC(OC2C(CO)OC(OC3C(O)C(N)CC(N)C3OC3OC(CN)C(O)C(O)C3N)C2O)C(N)C(O)C1O.O=S(=O)(O)O (stereo unspecified)	1.13
C=C1CCN([C@H](C)[C@](O)(Cn2cncn2)c2ccc(F)cc2F)CC1	0.986
CCCCc1nc(Cl)c(CO)n1Cc1ccc(-c2ccccc2-c2nnn[nH]2)cc1	1.02
COCCN1C(=O)CN(C2CCN(Cc3cc(OC)cc(OC)c3)CC2)C1=O	0.881
O=c1oc2cc(O)ccc2c2ccccc12	1.06
Clc1ccc(Nc2nnc(Cc3ccncc3)c3ccccc23)cc1	0.85
Cc1cc2nc(SCc3cc4c(cc3Cl)OCO4)[nH]c2cc1C	0.91
CN1CCN(CC(=O)N2c3ccccc3C(=O)Nc3cccnc32)CC1.Cl.Cl	1.15
CNCC[C@@H](Oc1cccc2ccccc12)c1cccs1	1.18
Oc1ccc(N=Cc2ccccc2O)cc1	1.51
O=C1OCCN1C1CCN(C(=O)C2(c3ccc(F)cc3)CC2)C1 (stereo unspecified)	1.06
O=C(c1ccc(F)cc1)C1CCN(CCn2c(=O)[nH]c3ccccc3c2=O)CC1	1.34
CCCCSc1nnc2c(n1)OC(c1cccc(C)n1)Nc1ccc(Br)cc1-2 (stereo unspecified)	0.97
CCN(CC)CCOC(=O)C(Cc1cccc2ccccc12)CC1CCCO1.O=C(O)C(=O)O (stereo unspecified)	0.998
Cc1c(C(=O)OC(C)C)sc(NC(=O)C(F)(F)F)c1C(=O)OC(C)C	1.05
COc1cc(C(=O)O)ccc1NC(=O)[C@@H]1N[C@@H](CC(C)(C)C)[C@](C#N)(c2ccc(Cl)cc2F)[C@H]1c1cccc(Cl)c1F	0.679
Cc1ccc(C)n1-c1ccc(C(=O)OCC(=O)c2ccc([N+](=O)[O-])cc2)cc1	1.31
Cc1cc(C)n2nc(C(=O)NN=Cc3ccc(N(C)C)cc3)nc2n1	0.934
O=C(CCC1CCCC1)Nc1cccc(F)c1	0.959
O=C1[C@H](CC[C@H](O)c2ccc(F)cc2)[C@@H](c2ccc(O)cc2)N1c1ccc(F)cc1	1.29
CC(O)(P(=O)(O)O)P(=O)(O)O	1.08
Cc1cc(-c2ccc(NC(=O)c3ccc([N+](=O)[O-])cc3)c(C)c2)ccc1NC(=O)c1ccc([N+](=O)[O-])cc1	0.928
COc1ccc(CCNCC(O)COc2cccc(C)c2)cc1OC.Cl (stereo unspecified)	1.06
CCS(=O)(=O)c1ccc(-c2cccc(NC(=O)CC3CCCC3)c2)nn1	1.01
COc1ccc(S(=O)(=O)NCc2ccnc(-c3ccncc3)c2)cc1Cl	0.964
COc1ccc(CN(CCN(C)C)c2ccccn2)cc1	1.01
COc1cc(C=C2NC(=O)NC2=O)cc(I)c1OCc1ccccc1	0.93
CCOC(=O)[C@H](CCc1ccccc1)N[C@H]1CCc2ccccc2N(CC(=O)O)C1=O	0.941
Cc1c(OCc2ccc(Cl)cc2)ccc2c(C(F)(F)F)cc(=O)oc12	1.11
O=C(O)/C=C/c1ccc(Cn2ccnc2)cc1	1.07
O=C(O)c1cc(O)c(O)c(O)c1	0.749
COc1cc2nc(N3CCN(C(=O)C4CCCO4)CC3)nc(N)c2cc1OC.Cl.O.O (stereo unspecified)	0.863
CCOC(=O)C1=C(C)NC(C)=C(C(=O)OCC)C1c1ccc(OC)cc1	1.02
Cc1cccc(C(C)C)c1NC(=O)c1ccccc1Br	0.953
O=C(NC1CCCCC1)c1cccc(C(F)(F)F)c1	1
Cc1oncc1C(=O)NCCn1nc(C(F)(F)F)cc1C1CC1	0.991

* * *

test system: RAW-Dual (murine macrophage reporter line); assay: IRF reporter (Lucia luciferase) activity fold change vs agonist alone; higher = enhanced IRF activity; conditions: modulator concentration 10 µM; agonist: MPLA […]
Quick rule for you: IRF reporter at 1 or higher means Yes, lower means No.

Ic1cccc(Cn2nnc(-c3ccccc3)n2)c1	Yes
CN1CCN(c2ccc3nc(-c4c(N)c5c(F)cccc5[nH]c4=O)[nH]c3c2)CC1	No
CCC(=O)Nc1ccc(S(=O)(=O)NCC2CCN(c3ncc(F)cn3)CC2)c(C)c1	Yes
CCN(CC)c1nc(-c2ccccc2Cl)c2cc(Br)ccc2n1	Yes
CC(C)n1cnc(S(=O)(=O)N2CCC(S(=O)(=O)c3nccn3C)CC2)c1	Yes
Cc1c(NC(=S)NC(=O)c2ccccc2[N+](=O)[O-])cccc1-c1nc2ccccc2s1	Yes
Br.CC(=O)c1cccc(Nc2nc(-c3c(C)nc4cc(C)ccn34)cs2)c1	Yes
COc1ccc(C2Sc3ccccc3N(CCN(C)C)C(=O)C2OC(C)=O)cc1.Cl (configuration not stated)	Yes
CCN(CC)CCOCCOC(=O)C1(c2ccccc2)CCCC1	Yes
COC(CNC(=O)C(C)(C)Oc1ccc(Cl)cc1)c1cccc(F)c1 (configuration not stated)	Yes
CNC(=O)[C@H](Cc1ccccc1)NC(=O)[C@H](CC(C)C)[C@H](CSc1cccs1)C(=O)NO	No
COC(=O)CSc1nc(O)c2c(C)c(C)sc2n1	Yes
CCOC(=O)C1=C(C)NC(C)=C(C(=O)OCC)C1c1ccc(F)cc1	Yes
Cc1nnsc1C(=O)Nc1ccccc1C(F)(F)F	No
CCNC(=O)c1ccc(CN2CCc3ccccc3C2)cc1	Yes
O=C(O)c1cc2ccccc2[nH]1	No
CN1CCN(c2c(F)cc3c(=O)c(C(=O)O)cn4c3c2OCN4C)CC1	Yes
COc1ccc(CN(CCN(C)C)c2ccccn2)cc1.O=C(O)/C=C\C(=O)O	No
O=C(Cc1ccc([N+](=O)[O-])cc1)NN=Cc1cccnc1	Yes
